system: SW-620 colon; test: NCI-60 one-dose screen, 48 h (100 = growth as untreated, 0 = no growth, -100 = all killed); settings: 10 µM unless noted
Compounds without any hit were thinned out: in the full panel of roughly 83,000, 20% have a hit.
# label = satisfied if growth < 90% else not satisfied

> print(dat)
                                    compound  assayed.system  discrete.label
 1  CCCC[C@@H](C=O)NC(=O)[C@H](CC(C)C)NC(=O)[C@H](CC(C)C)NC(=O)OCc1ccccc1    SW-620 colon       satisfied
 2  O=C1CC(c2ccccc2)Cc2nc3ccc(Br)cc3cc21 (stereo unspecified)    SW-620 colon       satisfied
 3  CC1=CC[C@@H]2C(C)(C)[C@@H](O)CC[C@@]2(C)[C@@H]1COc1ccc2ccc(=O)oc2c1    SW-620 colon       satisfied
 4    COc1cc2c(c(Br)c1N)-c1cc(Br)c(N)cc1C2=O    SW-620 colon       satisfied
 5  NS(=O)(=O)c1ccc(CCN2C(=O)/C(=C\c3ccccc3)C=C2c2ccc(Cl)cc2)cc1    SW-620 colon   not satisfied
 6        Brc1ccc(-c2nnc3c4[nH]ccc4ncn23)cc1    SW-620 colon   not satisfied
 7     CCN(CC)CCCNCc1cc(-c2ccccc2)nc2ccccc12    SW-620 colon       satisfied
 8  COc1cc(C)cc2oc3oc(=O)c(-c4nc5ccccc5s4)cc3c(=O)c12    SW-620 colon       satisfied
 9                           c1coc2occoc=2o1    SW-620 colon   not satisfied
10  COc1cc(NN=C(c2ccc(O)cc2)c2ccc(O)cc2)c([N+](=O)[O-])cc1[N+](=O)[O-]    SW-620 colon   not satisfied
11            Cc1ccc(S(=O)(=O)Nc2ccccc2)cc1N    SW-620 colon   not satisfied
